For each record, write down the corresponding inhibition.
- TEST TARGET: Glycogen synthase kinase-3 alpha (Homo sapiens) (UniProt P49840);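 note: values are mean inhibition of GSK3A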
- Sequence (P49840 2-483 limits assumed): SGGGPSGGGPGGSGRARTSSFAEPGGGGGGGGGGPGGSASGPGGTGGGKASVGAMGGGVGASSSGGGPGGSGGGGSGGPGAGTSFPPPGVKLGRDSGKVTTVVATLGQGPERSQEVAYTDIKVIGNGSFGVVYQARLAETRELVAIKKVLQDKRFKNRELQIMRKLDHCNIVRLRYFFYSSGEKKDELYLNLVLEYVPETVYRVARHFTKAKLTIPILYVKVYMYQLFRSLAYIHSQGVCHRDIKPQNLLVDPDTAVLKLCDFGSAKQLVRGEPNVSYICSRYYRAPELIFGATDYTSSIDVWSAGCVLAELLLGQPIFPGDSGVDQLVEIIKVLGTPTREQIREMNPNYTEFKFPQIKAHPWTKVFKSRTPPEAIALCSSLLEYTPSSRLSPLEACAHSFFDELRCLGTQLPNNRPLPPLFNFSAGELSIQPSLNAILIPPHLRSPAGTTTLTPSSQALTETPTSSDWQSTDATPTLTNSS
- TEST CONDITIONS: at 0.1 µM
Numbers only, in %.

In [3]: df
Out[3]:
                              record_smiles  quantitative_result
0  O=C(Nc1n[nH]c2cc(-c3cc(F)ccc3F)ccc12)C1CC1                 7.07

For each of the compounds below, note its inhibition.
1. NCc1ccc(-n2c(-c3nonc3N)nc3cnccc32)cc1
2. CCS(=O)(=O)c1ccc(OC)c(Nc2ncc(-c3cccc(-c4ccccc4F)c3)o2)c1

Result string:
[25.6, 2.37]

For each of the compounds below, note its inhibition.
1. COc1cc(Nc2ncc3c(C)nc(-c4cccc(C(F)(F)F)c4)n3n2)cc(OC)c1OC
2. N#Cc1ccc(Oc2nccc(-c3c(-c4ccc(F)cc4)ncn3C3CCNCC3)n2)cc1

Result string:
[2.88, 1.66]

====

- TEST TARGET: Casein kinase I isoform gamma-2 (Homo sapiens) (UniProt P78368)
- Sequence (P78368 whole entry, looked up, canonical isoform): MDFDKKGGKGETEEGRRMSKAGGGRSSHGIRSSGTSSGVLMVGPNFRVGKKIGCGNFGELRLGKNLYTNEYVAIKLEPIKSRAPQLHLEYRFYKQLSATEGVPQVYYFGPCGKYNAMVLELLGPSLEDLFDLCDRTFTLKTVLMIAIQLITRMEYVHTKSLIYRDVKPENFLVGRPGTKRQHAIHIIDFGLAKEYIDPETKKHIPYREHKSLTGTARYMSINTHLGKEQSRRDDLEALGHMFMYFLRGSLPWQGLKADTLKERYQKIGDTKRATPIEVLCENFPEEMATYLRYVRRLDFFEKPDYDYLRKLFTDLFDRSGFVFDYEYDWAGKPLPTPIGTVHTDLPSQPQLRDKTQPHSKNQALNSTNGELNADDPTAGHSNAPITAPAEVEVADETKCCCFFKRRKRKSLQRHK
- TEST CONDITIONS: at 1 µM
- Description: GSK_PKIS: CK1-g2 mean inhibition at 1 uM [Nanosyn]
ASSAY READOUT: inhibition
Your reply should be a number followed by the unit it is expressed in.

For each of the molecules below, note its inhibition.
1. O=C1NC(=O)C(c2cccc(Cl)c2)=C1Nc1ccc(Cl)c(C(=O)O)c1
2. CNC(=O)c1cncc(/C=C/c2c(C)cccc2C)c1
3. COc1ccc2cc(-c3c(-c4ccncc4)nc(-c4ccc(S(C)(=O)=O)cc4C)n3C)ccc2c1
4. COc1cc(Nc2ncc3c(C)nc(-c4cccc(Oc5ccccc5)c4)n3n2)cc(OC)c1OC
5. O=C(Nc1n[nH]c2nc(-c3ccco3)ccc12)C1CC1
6. CS(=O)(=O)CCNCc1ccc(-c2ccc3ncnc(Nc4ccc(OCc5ccccc5)c(Br)c4)c3c2)o1
7. COc1cc(Nc2ncc3c(C)nc(-c4cccc(C(F)(F)F)c4)n3n2)cc(OC)c1OC
8. Cc1nnc(-c2ccc(C)c(-c3ccc(C(=O)NCc4ccc(Cl)cc4)cc3)c2)o1

Result string:
1: 3.4%; 2: -0.99%; 3: 4.03%; 4: 3.44%; 5: 1.22%; 6: -0.24%; 7: 3.91%; 8: 1.06%

====

For each record, write down the corresponding inhibition.
- Test system: Proto-oncogene tyrosine-protein kinase receptor Ret (Homo sapiens), P07949 [V804L]
- Sequence (P07949 whole entry V804L): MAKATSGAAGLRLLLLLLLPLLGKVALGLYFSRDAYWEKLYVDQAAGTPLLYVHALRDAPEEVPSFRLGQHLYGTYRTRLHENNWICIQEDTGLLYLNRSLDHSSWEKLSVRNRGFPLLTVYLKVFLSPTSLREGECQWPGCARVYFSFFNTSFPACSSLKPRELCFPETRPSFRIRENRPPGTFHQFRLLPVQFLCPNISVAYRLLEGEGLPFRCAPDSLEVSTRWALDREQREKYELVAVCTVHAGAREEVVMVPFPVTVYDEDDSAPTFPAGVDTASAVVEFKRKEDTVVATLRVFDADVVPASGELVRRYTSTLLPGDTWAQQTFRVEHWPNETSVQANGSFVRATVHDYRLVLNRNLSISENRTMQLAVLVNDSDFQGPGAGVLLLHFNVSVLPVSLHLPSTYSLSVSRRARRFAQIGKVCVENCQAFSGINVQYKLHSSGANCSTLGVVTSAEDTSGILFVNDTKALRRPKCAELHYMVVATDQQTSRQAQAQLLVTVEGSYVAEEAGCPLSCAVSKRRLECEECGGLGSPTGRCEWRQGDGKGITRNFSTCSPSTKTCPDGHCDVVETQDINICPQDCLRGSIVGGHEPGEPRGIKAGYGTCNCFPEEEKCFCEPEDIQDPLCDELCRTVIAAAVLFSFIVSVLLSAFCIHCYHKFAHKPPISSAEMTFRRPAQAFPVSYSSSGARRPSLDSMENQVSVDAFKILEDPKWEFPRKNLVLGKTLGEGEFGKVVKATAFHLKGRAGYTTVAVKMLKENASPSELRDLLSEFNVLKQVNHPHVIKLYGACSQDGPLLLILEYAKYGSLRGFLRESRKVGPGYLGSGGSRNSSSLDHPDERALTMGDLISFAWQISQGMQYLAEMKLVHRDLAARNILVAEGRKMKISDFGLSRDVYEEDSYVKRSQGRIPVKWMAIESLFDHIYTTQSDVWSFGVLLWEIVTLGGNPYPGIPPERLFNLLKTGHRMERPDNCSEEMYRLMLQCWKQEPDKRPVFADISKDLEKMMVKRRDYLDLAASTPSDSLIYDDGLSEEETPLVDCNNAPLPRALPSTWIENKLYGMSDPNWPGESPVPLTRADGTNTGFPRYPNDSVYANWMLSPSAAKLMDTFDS
- TEST CONDITIONS: at 0.1 µM
Give bare numbers, in %.

>>> print(df.to_string())
                              record_smiles  assay_readout  quantitative_result
0  CN(C)c1ccc2c(c1)/C(=C/Nc1ccc(S(N)(=O)=O)cc1)C(=O)N2     inhibition                 12.5
1  CCc1ccc(Oc2nccc(-c3c(-c4ccc(F)cc4)ncn3C3CCNCC3)n2)cc1     inhibition                 3.58
2  COc1cc2ncn(-c3cc(OCc4ccccc4C(F)(F)F)c(C(C)=O)s3)c2cc1OC     inhibition                 5.33
3  COc1cc(Nc2ncc3c(C)nc(-c4cccc(Oc5ccccc5)c4)n3n2)cc(OC)c1OC     inhibition                 8.26
4  COc1cc2ncn(-c3cc(OCc4cccs4)c(C(N)=O)s3)c2cc1OC     inhibition                 7.23
5        CNC(=O)c1cncc(/C=C/c2c(C)cccc2C)c1     inhibition                 -0.1
6  CN(C)CCCNc1nccc(-c2c(-c3ccc(F)cc3)nn3cc(C(F)(F)F)ccc23)n1     inhibition                 8.31
7  O=C(NCC1CC1)c1ccc(-c2cccc(C(=O)NC3CC3)c2)cc1     inhibition                 1.77
8  COc1ccc2cc(-c3c(-c4ccncc4)nc(-c4ccc(S(C)(=O)=O)cc4C)n3C)ccc2c1     inhibition                 2.68

Please turn your attention to the following entry.
Query string: // query inhibition value for entry COc1cccc(-n2cnc3c(N/N=C/c4ccncc4)ncnc32)c1
Result string: -0.06

====

- TEST TARGET: Protein kinase C iota type (Homo sapiens);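 note: reported figures are mean inhibition values from the GSK PKIS screen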
- Sequence (whole entry): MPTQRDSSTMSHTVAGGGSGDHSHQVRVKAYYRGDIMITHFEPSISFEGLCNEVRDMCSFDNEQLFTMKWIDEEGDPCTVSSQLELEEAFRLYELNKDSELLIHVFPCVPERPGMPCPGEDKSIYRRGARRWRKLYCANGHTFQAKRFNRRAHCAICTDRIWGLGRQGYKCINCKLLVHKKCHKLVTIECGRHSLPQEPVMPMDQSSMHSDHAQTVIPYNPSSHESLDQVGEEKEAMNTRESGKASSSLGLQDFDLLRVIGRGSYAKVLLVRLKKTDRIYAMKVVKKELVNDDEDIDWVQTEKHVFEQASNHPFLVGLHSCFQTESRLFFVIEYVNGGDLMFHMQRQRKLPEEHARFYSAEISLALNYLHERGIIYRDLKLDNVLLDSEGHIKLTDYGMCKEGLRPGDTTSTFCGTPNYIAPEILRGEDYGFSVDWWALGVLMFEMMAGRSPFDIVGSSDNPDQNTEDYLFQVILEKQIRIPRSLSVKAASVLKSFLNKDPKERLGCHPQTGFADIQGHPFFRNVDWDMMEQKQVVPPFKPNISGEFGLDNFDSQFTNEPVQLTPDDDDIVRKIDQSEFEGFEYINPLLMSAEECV
- TEST CONDITIONS: at 1 µM
For each record, write down the corresponding inhibition.
Answers are plain numbers, in %.

Recorded inhibition, per entry:
                              record_smiles  assay_readout  quantitative_result
0  O=C1NC(=O)C(c2cccc(Cl)c2)=C1Nc1ccc(Cl)c(C(=O)O)c1     inhibition                 0.87
1  CN(c1ccc(NC(=O)Nc2c(Cl)cccc2Cl)cc1)c1ccnc(Nc2cccc(CS(C)(=O)=O)c2)n1     inhibition                  1.5
2  C[C@@H](Oc1cc(-n2cnc3ccc(OC4CCN(C)CC4)cc32)sc1C(N)=O)c1ccccc1Cl     inhibition                 2.89
3  c1ccc(-c2n[nH]cc2-c2ccnc(-c3ccc(OCCN4CCOCC4)cc3)c2)nc1     inhibition                 4.56
4              CCc1nccc2c1nc(-c1nonc1N)n2CC     inhibition                 1.45
5  CN1CCN(CCCNc2nc3ccc(Oc4ccc(NC(=O)Nc5cc(C(F)(F)F)ccc5F)cc4)cc3[nH]2)CC1     inhibition                 1.05
6  O=C(Nc1n[nH]c2nc(-c3ccc(O)cc3)c(Br)cc12)C1CC1     inhibition                 19.2
7     O=C(Nc1n[nH]c2nc(-c3ccco3)ccc12)C1CC1     inhibition                -0.15

Please turn your attention to the following entry.
Query string: Hi! What's the reported inhibition for COc1ccc2cc(-c3c(-c4ccncc4)nc(-c4ccc(S(C)(=O)=O)cc4C)n3C)ccc2c1 on Protein kinase C iota type (Homo sapiens)?
Result string: 3.45

====

- TEST TARGET: Ephrin type-A receptor 2 (Homo sapiens) (UniProt P29317);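 note: reported values are mean percent inhibition of EPHA2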
- Sequence (P29317 whole entry): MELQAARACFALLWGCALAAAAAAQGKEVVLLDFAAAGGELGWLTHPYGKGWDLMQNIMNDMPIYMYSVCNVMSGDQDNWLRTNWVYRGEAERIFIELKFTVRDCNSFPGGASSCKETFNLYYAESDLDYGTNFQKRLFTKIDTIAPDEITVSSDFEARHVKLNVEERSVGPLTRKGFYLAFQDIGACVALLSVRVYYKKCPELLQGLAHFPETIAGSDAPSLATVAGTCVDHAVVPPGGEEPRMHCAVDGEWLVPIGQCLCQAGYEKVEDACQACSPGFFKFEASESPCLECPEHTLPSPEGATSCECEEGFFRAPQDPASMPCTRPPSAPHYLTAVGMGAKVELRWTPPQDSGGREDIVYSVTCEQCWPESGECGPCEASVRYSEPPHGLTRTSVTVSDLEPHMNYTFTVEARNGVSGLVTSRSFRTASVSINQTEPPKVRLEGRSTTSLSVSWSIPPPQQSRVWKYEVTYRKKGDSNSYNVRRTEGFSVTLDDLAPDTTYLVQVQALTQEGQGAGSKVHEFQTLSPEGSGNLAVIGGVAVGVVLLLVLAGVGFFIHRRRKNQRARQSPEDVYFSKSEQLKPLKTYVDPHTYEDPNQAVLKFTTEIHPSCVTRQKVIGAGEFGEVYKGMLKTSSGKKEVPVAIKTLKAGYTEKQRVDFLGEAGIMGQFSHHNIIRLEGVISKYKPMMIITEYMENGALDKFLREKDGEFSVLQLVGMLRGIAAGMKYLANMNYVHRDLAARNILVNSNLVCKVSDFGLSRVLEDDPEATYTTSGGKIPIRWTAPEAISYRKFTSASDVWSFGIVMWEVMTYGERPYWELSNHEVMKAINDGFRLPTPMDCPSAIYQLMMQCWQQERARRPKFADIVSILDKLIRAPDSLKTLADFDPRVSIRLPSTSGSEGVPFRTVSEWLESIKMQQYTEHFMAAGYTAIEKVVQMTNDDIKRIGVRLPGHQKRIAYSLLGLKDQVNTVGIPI
- TEST CONDITIONS: at 0.1 µM
ASSAY READOUT: inhibition (%)
Numbers only, in %.

                              record_smiles  unit_symbol  quantitative_result
0  COC(=O)Nc1nc2ccc(Sc3ccc(NC(=O)Nc4cc(C(F)(F)F)ccc4F)cc3)cc2[nH]1            %                 25.8
1  C/C(Nc1ccc(S(N)(=O)=O)cc1)=C1/C(=O)Nc2ccccc21            %                -4.14
2              CCc1nccc2c1nc(-c1nonc1N)n2CC            %                 0.61
3  C[C@@H](Oc1cc(-n2cnc3ccc(OCC4CCN(C)CC4)cc32)sc1C(N)=O)c1ccccc1Cl            %                 1.42

Query string: // query inhibition value for entry Cc1ccc(C(=O)NC2CCC2)cc1-c1ccc(C(=O)NCC2CC2)cc1
Result string: 0.5

====

- TEST TARGET: Dual specificity mitogen-activated protein kinase kinase 1 (Homo sapiens);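 note: values reported are mean inhibition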
- TEST CONDITIONS: at 1 µM
For each record, write down the corresponding inhibition.
One number for each entry, in %.

Recorded inhibition, per entry:
>>> print(df.to_string())
                                   molecule  quantitative_result
0  c1ccc(-c2n[nH]cc2-c2ccnc(-c3ccc(OCCN4CCOCC4)cc3)c2)nc1                 -0.3
1  Fc1ccc(-c2ncn(C3CCNCC3)c2-c2ccnc(Oc3ccc(Oc4ccccc4)cc3)n2)cc1                 7.53
2  C[C@@H](Oc1cc(-n2cnc3ccc(OC4CCN(C)CC4)cc32)sc1C(N)=O)c1ccccc1Cl                 2.54
3  COc1ccc2cc(-c3c(-c4ccncc4)nc(-c4ccc([S+](C)[O-])cc4C)n3C)ccc2c1 (centres undefined)                -1.09
4  FC(F)(F)c1cccc(Nc2nccc(-c3cnn4nc(-c5ccccc5)ccc34)n2)c1                 3.14

For each of the molecules below, note its inhibition.
1. NCc1ccc(-n2c(-c3nonc3N)nc3cnccc32)cc1
2. O=C(Nc1n[nH]c2cc(-c3ccccc3)ccc12)C1CC1
3. COc1cc(C)c(N(C)C(=O)CN(C)C)cc1Nc1nc(Nc2cccc(F)c2C(N)=O)c2cc[nH]c2n1

Result string:
8.5
3.62
4.56

Query string: Hi! What's the reported inhibition for O=C(Nc1ccc(Oc2ccc3[nH]c(NC(=O)c4ccccc4)nc3c2)cc1)Nc1cc(C(F)(F)F)ccc1F on Dual specificity mitogen-activated protein kinase kinase 1 (Homo sapiens)?
Result string: 2.61
